Recorded Caspase-8 Kinact for the following compounds
Molecular target: Caspase-8 (Homo sapiens, UniProt Q14790)
Sequence (Q14790 217-374 limits assumed): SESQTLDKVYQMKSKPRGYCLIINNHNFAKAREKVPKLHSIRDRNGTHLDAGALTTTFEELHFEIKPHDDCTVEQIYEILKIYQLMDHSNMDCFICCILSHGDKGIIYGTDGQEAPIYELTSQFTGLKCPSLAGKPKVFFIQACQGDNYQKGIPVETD
Sequence (Q14790 385-479 limits assumed): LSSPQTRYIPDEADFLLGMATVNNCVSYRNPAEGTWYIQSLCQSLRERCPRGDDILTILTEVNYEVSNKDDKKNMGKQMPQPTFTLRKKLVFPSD
Assay: Caspase-8 enzyme assay, cleavage of fluorogenic substrate
Format: biochemical
Settings: second order rate constant of enzyme inactivation; substrate Acetyl-Asp-Glu-val-Asp-amino-4-methylcoumarin
MEASURED_ATTRIBUTE: Caspase-8 Kinact (M⁻¹ s⁻¹)

{"columns": ["COMPOUND", "ENDPOINT_RESULT"],
 "data": [
  ["CCC[C@@H](C(=O)NC(CC(=O)O)C(=O)CF)n1cnc2ccccc2c1=O (some centres unmarked) [Compound 1C-11]", 72500],
  ["C[C@@H](C(=O)NC(CC(=O)O)C(=O)CF)n1c(=O)ccc2ccccc21 (some centres unmarked) [Compound 1B-1]", 12000],
  ["O=C(O)CC(NC(=O)Cn1cnc2sccc2c1=O)C(=O)CF (centres unmarked) [Compound 1E-1]", 13500],
  ["C[C@@H](C(=O)NC(CC(=O)O)C(=O)CF)N1C(=O)c2ccccc2C1=O (some centres unmarked) [Compound 1F-3]", 15500],
  ["O=C(O)CC(NC(=O)Cn1ccc2ccccc2c1=O)C(=O)CF (centres unmarked) [Compound 1C-1]", 27000]
]}
